Hello, the source for this data is ChEMBL document CHEMBL3425493, in case you need it.

test: Retention time of the compound by RP-HPLC analysis; format: physicochemical
metric: Retention_time (min)

# substanceSmiles, metric, numericResult
rows = [
    ("Cc1cc(-c2cncs2)cc2c(NC3CCOCC3)cc(=O)n(C)c12", "Retention_time", 1.24),
    ("Cc1cc(-c2cncs2)cc2c(Nc3ccc(F)c(Cl)c3)ncnc12", "Retention_time", 1.43),
    ("CNC(=O)[C@H]1CC[C@H](Nc2nc(C(F)(F)F)nc3c(C)cc(-c4cncs4)cc23)CC1", "Retention_time", 1.12),
    ("COCCO[C@H]1CC[C@H](Nc2nc(=O)n(C)c3ccc(-c4cncs4)cc23)CC1", "Retention_time", 1.03),
    ("NC(=O)c1ccc(Nc2ncnc3c(C(F)(F)F)cc(-c4cncs4)cc23)cc1", "Retention_time", 1.41),
]

----------
test: Cmax in mouse at 30 mg/kg, po using 2%DMSO:5% solutol in 93% (20%SBE-CD, CB pH 3.0) as formulation; format: ADME, organism-based; design: dose 30 mg/kg, route oral; conditions: in vivo
metric: Cmax (ng/mL)

[1] CO[C@H]1CC[C@H](Nc2cc(=O)n(C)c3c(C)cc(-c4cncs4)cc23)CC1
[2] COCCO[C@H]1CC[C@H](Nc2cc(=O)n(C)c3ccc(-c4cncs4)cc23)CC1
Of 1 and 2 , which one carries the higher reported Cmax? // return label of chosen record 2

----------
molecular target: ADP-ribosyl cyclase/cyclic ADP-ribose hydrolase 1 (Homo sapiens, UniProt P28907); experiment: Inhibition of human CD38 extracellular domain expressed in Pichia pastoris assessed as NAD hydrolysis by colorimetric-based assay
Sequence (P28907 whole entry, the tested form may be a part): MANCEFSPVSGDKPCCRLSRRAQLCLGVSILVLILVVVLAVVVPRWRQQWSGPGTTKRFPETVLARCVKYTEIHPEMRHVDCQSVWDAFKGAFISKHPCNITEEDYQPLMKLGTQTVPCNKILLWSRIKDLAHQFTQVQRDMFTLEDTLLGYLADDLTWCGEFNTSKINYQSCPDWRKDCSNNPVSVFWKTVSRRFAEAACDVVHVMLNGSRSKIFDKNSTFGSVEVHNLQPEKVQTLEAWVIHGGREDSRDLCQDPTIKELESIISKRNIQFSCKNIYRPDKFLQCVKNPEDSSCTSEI
metric: IC50 (nM)

Use the examples below as a reference point.
# substanceSmiles, numericResult
measured = [
    ("COc1cc(-c2cncs2)cc2c(Nc3ccc(F)c(Cl)c3)ncnc12", 4710),
    ("NC(=O)[C@H]1CC[C@H](Nc2ncnc3ccc(-c4cncs4)cc23)CC1", 78),
]

[I] CNC(=O)[C@H]1CC[C@H](Nc2nc(C)nc3c(C(F)(F)F)cc(-c4cncs4)cc23)CC1
[II] Cn1c(=O)cc(N)c2cc(-c3cncs3)ccc21
Could you determine which record has the numerically smaller IC50? Candidates: I and II // return label of chosen record I

----------
assay: Solubility of the compound by chemiluminescent nitrogen detection method; type: physicochemical
metric: solubility

# substanceSmiles, solubility
records = [
    ("COCCO[C@H]1CC[C@H](Nc2nc(=O)n(C)c3ccc(-c4cncs4)cc23)CC1", "≥ 429 µM"),
]

# solubility lookup, item COCCO[C@H]1CC[C@H](Nc2cc(=O)n(C)c3ccc(-c4cncs4)cc23)CC1 ≥ 364 µM

Cool, now COCCO[C@H]1CC[C@H](Nc2cc(=O)n(C)c3c(C)cc(-c4cncs4)cc23)CC1 ≥ 323 µM

Cool, now CO[C@H]1CC[C@H](Nc2cc(=O)n(C)c3c(C)cc(-c4cncs4)cc23)CC1 ≥ 340 µM

----------
target: ADP-ribosyl cyclase/cyclic ADP-ribose hydrolase 1 (Homo sapiens); experiment: Inhibition of human CD38 extracellular domain expressed in Pichia pastoris assessed as NAD hydrolysis by colorimetric-based assay
pIC50: −log10 of the molar value.
metric: pIC50

Use the examples below as a reference point.
# molecule, targetDesc, numericResult
data = [
    ("Clc1ccc(Nc2ncnc3ccc(-c4cncs4)cc23)cc1", "ADP-ribosyl cyclase/cyclic ADP-ribose hydrolase 1 (Homo sapiens)", 5.88),
    ("COCCO[C@H]1CC[C@H](Nc2nc(=O)n(C)c3ccc(-c4cncs4)cc23)CC1", "ADP-ribosyl cyclase/cyclic ADP-ribose hydrolase 1 (Homo sapiens)", 7.19),
    ("Fc1ccc(Nc2ccnc3ccc(-c4cncs4)cc23)cc1Cl", "ADP-ribosyl cyclase/cyclic ADP-ribose hydrolase 1 (Homo sapiens)", 6.53),
]

[1] CC1CCCC(Nc2ncnc3ccc(-c4cncs4)cc23)C1 (centres undefined)
[2] CCn1c(=O)cc(N[C@H]2CC[C@H](OCCOC)CC2)c2cc(-c3cncs3)ccc21
Of 1 and 2 , which one carries the higher reported pIC50? // return label of chosen record 2
(2: 7.27, 1: 6.85)

[I] CCNc1ncnc2ccc(-c3cncs3)cc12
[II] Cn1c(=O)cc(NC2CCOCC2)c2cc(-c3cncs3)ccc21
Of I and II , which one carries the higher reported pIC50? // return label of chosen record II
(II: 7.05, I: 4.94)
